Source: patent US20250250258A1

- protocol.notes: Pharmacokinetic experiment in ICR mice, single gavage
- Format: in vivo
- measurement.setup: mouse, in vivo, po, 75 mg·kg −1, single gavage, 0-24 h sampling
quantity: AUC(0-t) (ng·h/mL)
Output spec: scalar in ng·h/mL, unitless text.

Reported AUC(0-t) ( C=CC(=O)Nc1cc(N2CCN(CC)C3(CC3)C2)ccc1Nc1cc(N(C)C(=O)Nc2c(Cl)c(OC)cc(OC)c2Cl)ncn1.CCS(=O)(=O)O.CCS(=O)(=O)O [crystal form A] ) = 9340

====

- protocol.notes: Comparative solubility assay in water
- Type: physicochemical
- measurement.setup: 25 °C, thermodynamic from solid
quantity: solubility
Answer with the number, then the unit.

solubility for C=CC(=O)Nc1cc(N2CCN(CC)C3(CC3)C2)ccc1Nc1cc(N(C)C(=O)Nc2c(Cl)c(OC)cc(OC)c2Cl)ncn1.CCS(=O)(=O)O.CCS(=O)(=O)O [amorphous form] is 115 mg/mL
